Quick reference for AC50 among some compounds
Molecular target: Neuropeptide Y receptor type 1 (Homo sapiens, UniProt P25929); also: assay procedure not described here
Sequence (P25929 whole entry): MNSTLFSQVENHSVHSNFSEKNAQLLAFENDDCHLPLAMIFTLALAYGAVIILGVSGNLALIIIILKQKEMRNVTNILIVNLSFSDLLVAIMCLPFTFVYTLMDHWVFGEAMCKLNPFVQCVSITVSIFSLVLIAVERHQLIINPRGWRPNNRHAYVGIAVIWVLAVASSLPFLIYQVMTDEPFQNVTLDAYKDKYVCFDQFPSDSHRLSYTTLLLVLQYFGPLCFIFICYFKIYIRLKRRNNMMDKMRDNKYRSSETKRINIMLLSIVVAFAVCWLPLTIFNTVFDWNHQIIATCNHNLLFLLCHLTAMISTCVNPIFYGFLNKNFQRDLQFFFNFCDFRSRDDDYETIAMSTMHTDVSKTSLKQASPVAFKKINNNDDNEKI
Details: read-out: AC50

>  <compound>
CCCC(CCC)C(N)=O [VALPROMIDE]

>  <AC50>
> 30 µM

$$$$
>  <compound>
CC1OC2(CS1)CN1CCC2CC1 (centres undefined)

>  <AC50>
> 10 µM

$$$$
>  <compound>
C=CC[C@@H]1/C=C(\C)C[C@H](C)C[C@H](OC)[C@H]2O[C@@](O)(C(=O)C(=O)N3CCCC[C@H]3C(=O)O[C@H](/C(C)=C/[C@@H]3CC[C@@H](O)[C@H](OC)C3)[C@H](C)[C@@H](O)CC1=O)[C@H](C)C[C@@H]2OC [TACROLIMUS ANHYDROUS]

>  <AC50>
> 30 µM

$$$$
>  <compound>
CC(=O)N[C@@H](CS)C(=O)O

>  <AC50>
> 30 µM

$$$$

Values from ChEMBL document CHEMBL5291721
